- Test system: Fusarium proliferatum
- procedure text: Production of Fumonisin FB1 by Fusarium proliferatum (microtitre plates; FB1 by HPLC-MS/MS, growth by OD620)
- Format: cell-based
- setup conditions: FB1 concentration in liquid medium after 6 days at 20° C., HPLC-MS/MS

| molecule | system | pI50 Fum |
| --- | --- | --- |
| CC1CCN(c2cccc(Nc3ncc(Br)c(NC4CC4)n3)c2)C1=O (stereo not drawn) | Fusarium proliferatum | 6.3 |
| CC1COC(=O)N1c1cccc(Nc2ncc(Br)c(NCC3CC3)n2)c1 (stereo not drawn) | Fusarium proliferatum | 6 |
| CC1COC(=O)N1c1cccc(Nc2ncc(C(F)(F)F)c(NC3CC3)n2)c1 (stereo not drawn) | Fusarium proliferatum | 6.2 |
| CC1(C)CC(=O)N(c2cccc(Nc3ncc(C(F)(F)F)c(NCC4CC4)n3)c2)C1=O | Fusarium proliferatum | 5.3 |
| CC1CC(=O)N(c2cccc(Nc3ncc(Br)c(NC4CCC4)n3)c2)C1=O (stereo not drawn) | Fusarium proliferatum | 6.4 |
| CC1(C)CC(=O)N(c2cccc(Nc3ncc(C(F)(F)F)c(NC4CC4)n3)c2)C1=O | Fusarium proliferatum | 6.2 |
| CC1CC1Nc1nc(Nc2cccc(N3CCCC3=O)c2)ncc1Cl (stereo not drawn) | Fusarium proliferatum | 4.8 |
| CCC(C)Nc1nc(Nc2cccc(N3CCCC3=O)c2)ncc1Cl (stereo not drawn) | Fusarium proliferatum | 4.6 |
| CCC1COC(=O)N1c1cccc(Nc2ncc(Cl)c(NC3CC3)n2)c1 (stereo not drawn) | Fusarium proliferatum | 6.3 |
